Sequence of the target: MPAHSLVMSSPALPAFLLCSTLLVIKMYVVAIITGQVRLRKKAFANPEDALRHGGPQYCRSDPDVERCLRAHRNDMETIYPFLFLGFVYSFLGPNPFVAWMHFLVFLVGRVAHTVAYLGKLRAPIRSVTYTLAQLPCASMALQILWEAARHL
pIC50: −log10 of the molar value.
value type: pIC50

(P) CC(C)(C)c1ccc(C(=O)NS(=O)(=O)c2ccccc2S(N)(=O)=O)cc1
(Q) NS(=O)(=O)c1ccccc1S(=O)(=O)NC(=O)c1ccc(C#CC2CCCC2)cc1F
(R) NS(=O)(=O)c1ccccc1S(=O)(=O)NC(=O)c1ccc(COCCC(F)(F)F)cc1
Descending by pIC50 please, for everything listed above. Present the labels in the sequence the task asks for.
Q, P, R

(A) CC(C)(C)C#Cc1ncc(C(=O)NS(=O)(=O)c2ccccc2S(N)(=O)=O)cn1
(B) COc1cc(C(=O)NS(=O)(=O)c2ccccc2S(N)(=O)=O)ccc1-c1cc2ccccc2o1
Smaller pIC50 value? Options are A and B In your reply, give the label of the chosen option.
A

(a) COC(C)(C)C#Cc1ccc(C(=O)NS(=O)(=O)c2ccccc2S(N)(=O)=O)cc1
(b) Cc1nc(-c2cccc(C(F)(F)F)c2)sc1C(=O)NS(=O)(=O)c1ccccc1S(N)(=O)=O
(c) CC(C)(C)C#Cc1ccc(C(=O)NS(=O)(=O)c2ccccc2S(N)(=O)=O)c(C(F)(F)F)c1
(d) Cc1nc(-c2ccc(C(F)(F)F)cc2)sc1C(=O)NS(=O)(=O)c1ccccc1S(N)(=O)=O
(e) NS(=O)(=O)c1ccccc1S(=O)(=O)NC(=O)c1cccc(OC(F)F)c1
Rank order required: pIC50, descending. Thanks in advance for listing the labels in the requested order.
b, d, c, a, e

(a) NS(=O)(=O)c1ccccc1S(=O)(=O)NC(=O)C1(c2ccccc2)CCCCC1
(b) NS(=O)(=O)c1ccccc1S(=O)(=O)NC(=O)c1ccc(-c2nc3cccnc3o2)cc1
Which shows the larger pIC50 value: a or b ? # reply format: chosen label
a

----------
- target of assay: human mPGES-1 (Homo sapiens)
- Sequence (O14684 1-152): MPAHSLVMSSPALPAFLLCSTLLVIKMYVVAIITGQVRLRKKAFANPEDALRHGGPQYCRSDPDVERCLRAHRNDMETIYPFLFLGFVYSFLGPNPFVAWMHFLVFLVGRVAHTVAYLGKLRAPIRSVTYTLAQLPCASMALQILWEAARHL
value type: IC50 (µM)

Reference set, count: 4
[
  {
    "smiles code": "Cn1c(C(=O)NS(=O)(=O)c2ccccc2S(N)(=O)=O)cc2ccccc21",
    "IC50 (µM)": 4.6
  },
  {
    "smiles code": "NS(=O)(=O)c1ccccc1S(=O)(=O)NC(=O)c1ccc(OCc2ccccc2)cc1",
    "IC50 (µM)": 0.16
  },
  {
    "smiles code": "CC(C)Oc1cc(C(=O)NS(=O)(=O)c2ccccc2S(N)(=O)=O)cnc1C#CC1CCCC1",
    "IC50 (µM)": 0.014
  },
  {
    "smiles code": "CC(C)Oc1cc(C(=O)NS(=O)(=O)c2ccccc2S(N)(=O)=O)ccc1-c1cc2ccccc2o1",
    "IC50 (µM)": 0.0095
  }
]

(A) CC(C)Oc1cc(C(=O)NS(=O)(=O)c2ccccc2S(N)(=O)=O)cnc1C#CC1CCCCC1
(B) COc1cccc(-c2cc3cc(C(=O)NS(=O)(=O)c4ccccc4S(N)(=O)=O)ccc3o2)c1
(C) COc1cc(-c2cc3ccccc3o2)ccc1C(=O)NS(=O)(=O)c1ccccc1S(N)(=O)=O
(D) NS(=O)(=O)c1ccccc1S(=O)(=O)NC(=O)c1cnc(-c2cc3ccccc3o2)c(Cl)c1
// sort entries: IC50, high to low Dear reader, please state the labels in the requested order.
C, D, B, A

----------
- target of assay: human mPGES-1 (Homo sapiens)
- test description: Microsomal prostaglandin E synthase biochemical assay
- condition parameters: microsome preparation containing human mPGES-1; PGH2 10.8 μM, GSH 2.5 mM, pH 6.8; PGE2 quantified by HTRF; average of at least n=2
value type: IC50 (nM)

Sample answers from the record:
[
  {
    "molecule": "CC(C)(C)C#Cc1ccc(C(=O)NS(=O)(=O)c2ccccc2S(N)(=O)=O)nc1",
    "IC50 / nM": 1200
  },
  {
    "molecule": "COCC#Cc1ccc(C(=O)NS(=O)(=O)c2ccccc2S(N)(=O)=O)cc1",
    "IC50 / nM": 1600
  },
  {
    "molecule": "NS(=O)(=O)c1ccccc1S(=O)(=O)NC(=O)c1ccc(C#CC2CCCC2)c(CO)c1",
    "IC50 / nM": 110
  }
]

(A) CC(C)(O)C#Cc1cccc(C(=O)NS(=O)(=O)c2ccccc2S(N)(=O)=O)c1
(B) COc1cc(C(=O)NS(=O)(=O)c2ccccc2S(N)(=O)=O)cnc1C#Cc1ccc(C(F)(F)F)cc1
Identify the entry with the larger IC50. Options: A and B Answer format: the label of the selected item.
A
(A: 56 nM, B: 6.8 nM)

----------
- target of assay: human mPGES-1 (Homo sapiens, UniProt O14684)
- Sequence (O14684 1-152): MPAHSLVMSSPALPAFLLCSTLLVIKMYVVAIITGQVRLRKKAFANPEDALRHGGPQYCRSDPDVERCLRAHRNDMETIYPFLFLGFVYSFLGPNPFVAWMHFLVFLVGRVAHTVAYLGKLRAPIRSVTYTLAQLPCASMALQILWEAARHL
value type: IC50 (nM)

Example entries begin here.
[
  {
    "smiles code": "NS(=O)(=O)c1ccccc1S(=O)(=O)NC(=O)[C@H]1CC[C@@H](c2cc3ccccc3o2)CC1",
    "unit symbol": "nM",
    "measured": 2100
  },
  {
    "smiles code": "NS(=O)(=O)c1ccccc1S(=O)(=O)NC(=O)c1ccc(Br)cc1F",
    "unit symbol": "nM",
    "measured": 1400
  },
  {
    "smiles code": "NS(=O)(=O)c1ccccc1S(=O)(=O)NC(=O)c1ccc(C#CC2CC2)c2c1OC(F)(F)O2",
    "unit symbol": "nM",
    "measured": 63
  },
  {
    "smiles code": "NS(=O)(=O)c1ccccc1S(=O)(=O)NC(=O)c1ccc(-c2ccccc2)s1",
    "unit symbol": "nM",
    "measured": 530
  },
  {
    "smiles code": "NS(=O)(=O)c1ccccc1S(=O)(=O)NC(=O)c1cccc(C#CC2CCCC2)c1",
    "unit symbol": "nM",
    "measured": 220
  },
  {
    "smiles code": "NS(=O)(=O)c1ccccc1S(=O)(=O)NC(=O)c1ccc(Br)c(F)c1",
    "unit symbol": "nM",
    "measured": 290
  },
  {
    "smiles code": "Cc1cc(C(=O)NS(=O)(=O)c2ccccc2S(N)(=O)=O)ccc1-c1cc2ccccc2o1",
    "unit symbol": "nM",
    "measured": 5.5
  },
  {
    "smiles code": "NS(=O)(=O)c1ccccc1S(=O)(=O)NC(=O)c1ccc(Br)cc1",
    "unit symbol": "nM",
    "measured": 440
  },
  {
    "smiles code": "NS(=O)(=O)c1ccccc1S(=O)(=O)NC(=O)c1ccc2[nH]c(-c3ccccc3)cc2c1",
    "unit symbol": "nM",
    "measured": 140
  },
  {
    "smiles code": "NS(=O)(=O)c1cc(CO)ccc1S(=O)(=O)NC(=O)c1ccc(-c2cc3ccccc3o2)cc1",
    "unit symbol": "nM",
    "measured": 320
  }
]

(1) COCCOCCOc1cc(C(=O)NS(=O)(=O)c2ccccc2S(N)(=O)=O)cnc1C#CC(C)(C)C
(2) CC(C)(C)C#Cc1ccc(C(=O)NS(=O)(=O)c2ccccc2S(N)(=O)=O)c2ccccc12
Identify the entry with the smaller IC50: 1 or 2 . Lab note: record the label of whichever item you select.
2

(A) CC(C)(C)C#Cc1ccc(C(=O)NS(=O)(=O)c2ccccc2S(N)(=O)=O)cc1C#N
(B) CC(C)(C)C#Cc1ccc(C(=O)NS(=O)(=O)c2ccccc2S(N)(=O)=O)c(F)c1
Which value of IC50 is numerically greater: that of A or that of B ? Pick one; state its label.
B

(I) NS(=O)(=O)c1ccccc1S(=O)(=O)NC(=O)c1ccc2oc(-c3ccccn3)cc2c1
(II) N#Cc1cc(C(=O)NS(=O)(=O)c2ccccc2S(N)(=O)=O)ccc1-c1cc2ccccc2o1
Please state the entry with greater IC50 among I and II . Pick one; state its label.
I

----------
Sequence of the target: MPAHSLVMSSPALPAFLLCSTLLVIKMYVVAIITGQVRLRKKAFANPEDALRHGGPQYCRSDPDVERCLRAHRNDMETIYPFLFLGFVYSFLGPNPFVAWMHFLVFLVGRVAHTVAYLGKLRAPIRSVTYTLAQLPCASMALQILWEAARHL
value type: IC50 (nM)

[
  {
    "smiles code": "COc1cc(C(=O)NS(=O)(=O)c2ccccc2S(N)(=O)=O)cnc1C#CC1CCCC1",
    "unit symbol": "nM",
    "IC50": 20
  }
]

(1) COc1ccccc1-c1cc2cc(C(=O)NS(=O)(=O)c3ccccc3S(N)(=O)=O)ccc2o1
(2) CC(C)(O)C#Cc1cccc(-c2ccccc2C(=O)NS(=O)(=O)c2ccccc2S(N)(=O)=O)c1
Please let me know which one, 1 or 2 , has a lower measured IC50 value. Choose, then provide that item's label.
1
